# system: NEK7 (Homo sapiens (Human), UniProt Q8TDX7+Q96SW2)
# Sequence (Q8TDX7 whole entry): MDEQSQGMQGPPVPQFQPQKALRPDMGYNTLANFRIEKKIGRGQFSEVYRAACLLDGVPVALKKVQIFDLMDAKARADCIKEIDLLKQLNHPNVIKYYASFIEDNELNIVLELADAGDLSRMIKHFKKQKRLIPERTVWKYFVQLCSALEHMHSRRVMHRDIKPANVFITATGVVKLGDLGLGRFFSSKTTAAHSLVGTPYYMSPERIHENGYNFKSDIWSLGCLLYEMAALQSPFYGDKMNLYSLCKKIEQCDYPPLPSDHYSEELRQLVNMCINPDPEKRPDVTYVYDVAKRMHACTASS
# Sequence (Q96SW2 whole entry): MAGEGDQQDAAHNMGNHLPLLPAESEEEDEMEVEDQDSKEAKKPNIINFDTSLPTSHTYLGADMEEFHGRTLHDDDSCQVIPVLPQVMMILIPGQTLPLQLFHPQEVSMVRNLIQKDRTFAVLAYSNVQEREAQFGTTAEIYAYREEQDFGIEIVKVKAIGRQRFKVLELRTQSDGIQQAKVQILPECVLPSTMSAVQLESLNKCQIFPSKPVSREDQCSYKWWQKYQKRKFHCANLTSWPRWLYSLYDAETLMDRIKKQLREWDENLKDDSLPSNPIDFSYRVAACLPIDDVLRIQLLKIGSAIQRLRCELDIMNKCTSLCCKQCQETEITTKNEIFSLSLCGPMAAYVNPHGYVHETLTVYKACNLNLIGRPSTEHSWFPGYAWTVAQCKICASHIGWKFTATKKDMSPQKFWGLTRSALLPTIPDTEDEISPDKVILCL
# Sequence (Q16531 2-1140 partner): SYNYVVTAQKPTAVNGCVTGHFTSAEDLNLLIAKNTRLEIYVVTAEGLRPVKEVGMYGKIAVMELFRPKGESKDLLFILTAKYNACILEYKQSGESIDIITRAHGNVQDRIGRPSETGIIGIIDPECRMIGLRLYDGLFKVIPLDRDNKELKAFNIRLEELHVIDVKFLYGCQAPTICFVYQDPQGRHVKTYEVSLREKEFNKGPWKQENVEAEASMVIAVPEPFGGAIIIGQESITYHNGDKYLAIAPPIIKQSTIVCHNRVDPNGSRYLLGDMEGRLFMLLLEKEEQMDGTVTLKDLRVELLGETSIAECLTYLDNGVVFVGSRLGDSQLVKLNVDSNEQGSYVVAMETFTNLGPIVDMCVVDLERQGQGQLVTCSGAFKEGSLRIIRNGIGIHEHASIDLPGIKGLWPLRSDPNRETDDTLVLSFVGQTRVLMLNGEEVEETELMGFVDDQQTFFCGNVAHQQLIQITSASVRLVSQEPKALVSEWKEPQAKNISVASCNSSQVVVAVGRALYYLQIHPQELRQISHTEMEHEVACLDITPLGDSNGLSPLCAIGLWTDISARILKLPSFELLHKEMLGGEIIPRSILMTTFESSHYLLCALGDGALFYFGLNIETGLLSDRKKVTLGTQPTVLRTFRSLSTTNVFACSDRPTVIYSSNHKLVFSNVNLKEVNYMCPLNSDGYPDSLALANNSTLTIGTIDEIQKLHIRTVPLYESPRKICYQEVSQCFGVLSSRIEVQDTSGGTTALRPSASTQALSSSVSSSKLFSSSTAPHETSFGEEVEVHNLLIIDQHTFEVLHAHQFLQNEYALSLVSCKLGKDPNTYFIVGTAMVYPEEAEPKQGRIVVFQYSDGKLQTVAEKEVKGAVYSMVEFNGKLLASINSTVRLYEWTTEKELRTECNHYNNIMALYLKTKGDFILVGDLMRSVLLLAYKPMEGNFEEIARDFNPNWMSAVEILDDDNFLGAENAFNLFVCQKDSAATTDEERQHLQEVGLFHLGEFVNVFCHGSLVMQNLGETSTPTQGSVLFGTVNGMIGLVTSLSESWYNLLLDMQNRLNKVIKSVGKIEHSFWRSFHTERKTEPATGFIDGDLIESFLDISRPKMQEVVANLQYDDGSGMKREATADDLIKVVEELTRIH
# procedure.details: NEK7 NanoBiT degradation assay in Cal51 NEK7 NanoBiT cell line
# Type: cell-based
# settings: NEK7 degradation, Cal51 NEK7 NanoBiT cells, 24 hours; read-out: NanoBiT DC50
assay.endpoint: DC50

molecule | DC50
Cn1ncc2ccc(C3(C(=O)NCc4cc(Cl)c(C5CCC(=O)NC5=O)c(Cl)c4)CCOCC3)cc21 (stereo not drawn) | ≤ 100 nM

// DC50 lookup, molecule = CC(C)(C(=O)NCc1cc(Cl)c(C2CCC(=O)NC2=O)c(Cl)c1)c1ccc(S(N)(=O)=O)cc1 (stereo not drawn) , result: ≤ 100 nM

In plain terms, CC(C)(C(=O)NCc1cc(Cl)c(C2CCC(=O)NC2=O)c(Cl)c1)c1ncc(C2CC2)cn1 (stereo not drawn) has a documented DC50 of ≤ 100 nM

Per the record, CC(C)(C(=O)NCc1cc(Cl)c(C2CCC(=O)NC2=O)c(Cl)c1)c1ccnc(F)c1 (stereo not drawn) has DC50 of ≤ 100 nM

DC50 for CC(C)(C(=O)NCc1cc(Cl)c(C2CCC(=O)NC2=O)c(Cl)c1)c1nocc1C1CC1 (stereo not drawn) is ≤ 100 nM

Record CC(C)(C(=O)NCc1cc(Cl)c(C2CCC(=O)NC2=O)c(Cl)c1)C1CCCC1 (stereo not drawn) . Reported DC50: ≤ 100 nM

Data provenance: patent US20250243180A1
